Below, each entry is listed alongside its reported pIC50.
Biological target: T1, HLA-DRB3*0101 molecule (human)
T1 chain 1: not shown
T1 chain 2: not shown
Assay: competition ELISA vs biotin-Lol 191-210
# pIC50: negative log10 of molar concentration; output just the value

1) LRREVYDFAFRDLCIVYRDGNPY (modifications not checked) [E6(45-67)]: 5.60
2) LRLCVQSTHVDIRTLEDLLMGTL (modifications not checked) [E7(65-87)]: 6.07
3) MHGDTPTLHEYMLDLQPETT (modifications not checked) [E7(1-20)]: 7.46
4) ERPRKLPQLCTELQTTIHDII (modifications not checked) [E6(14-34)]: 5.84
5) PTLHEYMLDLQPETT (modifications not checked) [E7 6-20]: 7.05

Please examine the following record next.
Lookup: Look up pIC50 for this binder: TLHEYMLDLQPETTDLYCYEQ (modifications not checked) [E7(7-27)]
Found: 8.07
